- systemName: IL-17A/A (Homo sapiens)
- Sequence (Q16552 24-155): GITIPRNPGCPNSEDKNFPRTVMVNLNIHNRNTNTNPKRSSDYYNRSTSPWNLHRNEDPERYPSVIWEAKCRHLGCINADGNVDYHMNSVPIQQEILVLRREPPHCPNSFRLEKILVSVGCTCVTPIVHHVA
- measurementNotes: HEK-Blue IL-17A/A inhibition assay (SEAP reporter)
- cond: HEK-Blue cells (HEK 293 expressing IL-17RA, IL-17RC, Act1); IL-17A/A stimulation; 20 hours; SEAP read at A630; 4-parameter fit
measuredMetric: IC50

Field: example entries. Status: answers known.
CCn1nccc1C(=O)N[C@H](C(=O)Nc1c(F)cc(C(C)C(=O)NCC(F)(F)F)cc1F)C(C1CC1)C1CC1 (single isomer, unassigned) [Compound 171]; 100 to 1000 nM
CCn1nccc1C(=O)N[C@H](C(=O)Nc1cc(C(F)(F)F)c(C(C)C(=O)N2CC(F)(F)CC2C(F)(F)F)cc1F)C(C1CC1)C1CC1 (some centres unmarked) [Compound 239]; 100 to 1000 nM

Please report IC50 for every entry that follows.
1. COc1cc(NC(=O)[C@@H](NC(=O)c2ccnn2C(C)C)C(C2CC2)C2CC2)c(F)cc1C(C)C(=O)N1CC(O)CC1C(F)(F)F (single isomer, unassigned) [Compound 183]
2. CC(C)n1nccc1C(=O)N[C@H](C(=O)Nc1ccc([C@H](C)C(=O)N2CCOCC2C(F)(F)F)cc1F)C(C1CC1)C1CC1 (single isomer, unassigned) [Compound 18]
3. CC(C)n1nccc1C(=O)N[C@H](C(=O)Nc1ccc([C@H](C)C(=O)NCC(C)(F)F)cc1F)C(C1CC1)C1CC1 [Compound 57]

A:
1. > 1000 nM
2. < 100 nM
3. 100 to 1000 nM
